B1: CD2-associated protein, residues 109 to 169; numbered along this chain, Q9Y5K6 (parent)
chain: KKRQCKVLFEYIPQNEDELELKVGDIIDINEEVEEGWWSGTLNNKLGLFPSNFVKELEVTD

variants of: B1; assay: abundance fitness (aPCA) (normalised: wild type 0, dead -1); higher = more abundant; growth selection in yeast, the domain comes from the species named; details: Homo sapiens
Classes by abundance fitness: c1 = under -0.5, c2 = from -0.5 up to -0.2, c3 = -0.2 and over

>>> classification("S39P")
"c1"
>>> classification("F49A")
"c1"
>>> classification("E56S")
"c2"

Input: Dear colleague, I would appreciate it if you could identify the bin for `E31F` and reply at your convenience.
Output: c1

Input: Dear colleague, I would appreciate it if you could identify the bin for `I27L` and reply at your convenience.
Output: c2
